Attribution: patent US8697742B2

I'd be grateful if you could share measured Tumor growth inhibition ratio IR for these entries.
Tested on: HCT116/BCRP cells
Test: Effect of overcoming anticancer agent resistance in vivo, HCT116/BCRP tumour in nude mice
Parameters: species or system human
Experimental conditions: compound 12.5 mg/kg/day + CPT-11 10 mg/kg/day i.v. once a day for seven days; day 21; vs control group
Structures can show the parent of a compound that is named as a salt.
Express it in %; write the number only.

Fill blank: measured Tumor growth inhibition ratio IR of the compound COc1ccc(/C=C(\C#N)c2cccnc2)cc1OC [Compound 46, hydrochloride] is ____.
37.7

Fill blank: measured Tumor growth inhibition ratio IR of the compound COc1ccc(/C(C#N)=C/c2ccc(-c3cccc(N)c3)o2)cc1OC [Compound 23, hydrochloride] is ____.
12.3

Fill blank: measured Tumor growth inhibition ratio IR of the compound COc1ccc(/C(C#N)=C/c2ccc(N3CCN(C)CC3)s2)cc1OC [Compound 13, hydrochloride] is ____.
31.7

Fill blank: measured Tumor growth inhibition ratio IR of the compound COc1ccc(/C(C#N)=C/c2ccc(N3CCN(CCO)CC3)s2)cc1OC [Compound 14, hydrochloride] is ____.
37.7

Fill blank: measured Tumor growth inhibition ratio IR of the compound COc1ccc(/C(C#N)=C/c2ccncc2)cc1OC.CS(=O)(=O)O is ____.
59.0

Fill blank: measured Tumor growth inhibition ratio IR of the compound COc1ccc(/C(C#N)=C/c2ccncc2)cc1OC [Compound 31, hydrochloride] is ____.
46.6
